Target Desc: UniProt:P30291
Sequence (P30291 whole entry, looked up): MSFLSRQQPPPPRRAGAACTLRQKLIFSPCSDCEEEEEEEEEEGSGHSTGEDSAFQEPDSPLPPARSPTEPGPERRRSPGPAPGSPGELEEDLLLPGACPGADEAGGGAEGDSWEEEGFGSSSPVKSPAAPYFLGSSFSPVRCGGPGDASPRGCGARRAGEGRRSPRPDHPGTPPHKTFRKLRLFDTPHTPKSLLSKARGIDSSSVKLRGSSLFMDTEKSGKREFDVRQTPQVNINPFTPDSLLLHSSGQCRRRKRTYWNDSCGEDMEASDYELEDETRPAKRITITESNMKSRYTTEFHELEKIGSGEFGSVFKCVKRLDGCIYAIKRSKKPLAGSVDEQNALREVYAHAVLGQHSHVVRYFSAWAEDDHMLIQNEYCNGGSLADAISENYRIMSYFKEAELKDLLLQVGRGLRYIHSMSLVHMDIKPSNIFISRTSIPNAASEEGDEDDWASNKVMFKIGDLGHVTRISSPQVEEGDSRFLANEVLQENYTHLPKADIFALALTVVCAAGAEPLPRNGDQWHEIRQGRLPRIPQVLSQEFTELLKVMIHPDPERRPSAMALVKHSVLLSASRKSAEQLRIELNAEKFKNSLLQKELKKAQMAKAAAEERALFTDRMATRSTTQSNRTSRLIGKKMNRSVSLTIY
Measurement Description: radiometric filter-binding kinase assay, Kinase HotSpot
Measurement Setup: compound 0.5 µM; ATP 10 µM
We use 90% as the dividing line for residual activity: on or above the line is satisfied, below is not satisfied.

For this compound, is measured residual activity 90% or higher? CC#CC(=O)Nc1cc2c(Nc3ccc(F)c(Cl)c3)ncnc2cn1
satisfied

For this compound, is measured residual activity 90% or higher? O=C1NC(=O)c2c1c1c3ccccc3n3c1c1c2c2ccccc2n1C1CCC3O1
not satisfied

For this compound, is measured residual activity 90% or higher? O=c1cc(N2CCOCC2)oc2c1ccc1ccccc12
satisfied

For this compound, is measured residual activity 90% or higher? COc1ccc2c(c[n+](C)c3c4cc5c(cc4ccc23)OCO5)c1OC
satisfied

For this compound, is measured residual activity 90% or higher? Cc1[nH]c(/C=C2\C(=O)Nc3ccc(S(=O)(=O)N(C)c4cccc(Cl)c4)cc32)c(C)c1C(=O)N1CCN(C)CC1
not satisfied

For this compound, is measured residual activity 90% or higher? O=C1NC(=O)C(c2cn(CCCn3ccnc3)c3ccccc23)=C1Nc1ccccc1
satisfied

For this compound, is measured residual activity 90% or higher? Nc1cccc(-c2cc3c(Oc4cccc(O)c4)ncnc3[nH]2)c1
not satisfied

For this compound, is measured residual activity 90% or higher? CCN(CC)CCNC(=O)c1c(C)[nH]c(/C=C2\C(=O)Nc3ccc(Cl)cc32)c1C
satisfied

For this compound, is measured residual activity 90% or higher? N#CC(C#N)=C(N)/C(C#N)=C/c1ccc(O)cc1
satisfied

For this compound, is measured residual activity 90% or higher? Cc1ccc(NC2=CC(=O)c3sc(C)nc3C2=O)cc1
satisfied

For this compound, is measured residual activity 90% or higher? Oc1cccc(-c2nc(N3CCOCC3)c3oc4ncccc4c3n2)c1
not satisfied

For this compound, is measured residual activity 90% or higher? CCCC(=O)Oc1ccc2[nH]c(C(=O)c3cc4ccccc4[nH]3)cc2c1
not satisfied

For this compound, is measured residual activity 90% or higher? Cc1ccc(S(=O)(=O)/C=C/C#N)cc1
satisfied

For this compound, is measured residual activity 90% or higher? N#C/C(=C(/N)Sc1ccc(N)cc1)c1ccccc1C(F)(F)F
not satisfied

###

Target Desc: BTK (human) (UniProt Q06187)
Sequence (Q06187 whole entry, looked up): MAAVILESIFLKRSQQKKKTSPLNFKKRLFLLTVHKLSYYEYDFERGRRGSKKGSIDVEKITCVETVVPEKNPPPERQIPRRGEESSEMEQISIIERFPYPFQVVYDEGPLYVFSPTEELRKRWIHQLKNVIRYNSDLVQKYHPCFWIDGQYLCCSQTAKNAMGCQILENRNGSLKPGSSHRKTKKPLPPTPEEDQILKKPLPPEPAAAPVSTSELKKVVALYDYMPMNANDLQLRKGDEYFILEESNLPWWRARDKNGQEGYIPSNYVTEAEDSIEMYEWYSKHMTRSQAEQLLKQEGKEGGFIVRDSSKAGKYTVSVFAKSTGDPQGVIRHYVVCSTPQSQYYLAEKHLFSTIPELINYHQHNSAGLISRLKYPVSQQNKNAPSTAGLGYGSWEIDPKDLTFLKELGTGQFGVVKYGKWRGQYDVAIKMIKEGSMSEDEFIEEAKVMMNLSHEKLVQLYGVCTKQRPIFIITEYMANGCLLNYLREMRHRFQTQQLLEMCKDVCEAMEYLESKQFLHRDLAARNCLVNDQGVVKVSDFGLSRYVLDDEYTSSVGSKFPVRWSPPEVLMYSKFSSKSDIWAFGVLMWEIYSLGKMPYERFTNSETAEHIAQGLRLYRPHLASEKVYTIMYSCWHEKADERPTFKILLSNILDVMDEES
Measurement Description: radiometric filter-binding kinase assay, Kinase HotSpot
Measurement Setup: compound 0.5 µM; ATP 10 µM
Assign residual activity to each entry below.
Provide the reading as a plain figure in %.

residual activity for CCN(CC)C(=O)c1ccc(Nc2nc(OCC3CCCCC3)c3nc[nH]c3n2)cc1 is 37.1

residual activity for CCOC(=O)c1c(C)[nH]c(/C=C2\C(=O)Nc3ccccc32)c1C is 95.6

residual activity for O=C1NC(=O)C(c2cn(CCCn3ccnc3)c3ccccc23)=C1Nc1ccccc1 is 105

residual activity for O=C(Nc1cccc(Nc2nccc(Nc3cccc(C(F)(F)F)c3)n2)c1)C1CC1 is 83.7

residual activity for c1ccc(-c2n[nH]cc2-c2ccnc3ccccc23)nc1 is 104

residual activity for CNC(=O)c1cc(Oc2ccc(NC(=O)Nc3ccc(Cl)c(C(F)(F)F)c3)cc2)ccn1 is 102

residual activity for CCCC(=O)Oc1ccc2[nH]c(C(=O)c3cc4ccccc4[nH]3)cc2c1 is 88.2

residual activity for Nc1cccc(-c2cc3c(Oc4cccc(O)c4)ncnc3[nH]2)c1 is 33.6

residual activity for O=S(=O)(c1cccc2cnccc12)N1CCCNCC1 is 96.5

residual activity for CCC(=O)Nc1ccc2ncnc(Nc3cccc(Br)c3)c2c1 is 89.4

residual activity for CNc1cc2c(Nc3cccc(Br)c3)ncnc2cn1 is 94.7

residual activity for Nc1ccc2ncnc(NCCc3ccc(Oc4ccccc4)cc3)c2c1 is 96.8

residual activity for Cc1ccc(Nc2nccc(N(C)c3ccc4c(C)n(C)nc4c3)n2)cc1S(N)(=O)=O is 78.8

residual activity for c1ccc(-c2n[nH]c3c2oc2ccccc23)cc1 is 96.4

residual activity for CC[n+]1c(/C=C/N(C)c2ccccc2)n(-c2ccccc2)c2ccc(-c3nc4ccccc4s3)cc21 is 91.6

residual activity for COc1cc2ncnc(Nc3cccc(Cl)c3)c2cc1OC is 76.7

residual activity for CC(C)N(CCC(=O)c1ccc2ccccc2c1)Cc1ccccc1 is 87.5
